System: SARS-COV-2
Assay: microbe, parasite or virus in culture
Assay type: cell-based
Design: unit not given here
Details: SARS-COV-2; values >50 assumed to be 50
// label = Criterion met if SI (Selectivity Index, CC50/IC50) is not less than 3, otherwise Criterion not met

Some entries whose results are on file:
- COc1cc2cc3c(c(-c4cccc(N5CCCC5)c4)c2cc1OC)C(=O)OC3.Cl [Example 252]: Criterion not met
- COc1cc2cc3c(c(-c4ccc5nccc(N6CCNCC6)c5c4)c2cc1OC)C(=O)OC3 [Example 135]: Criterion not met
- COc1cc2cc3c(c(-c4cnc(N(C)[C@H]5CCc6c(cccc6OC)C5)nc4)c2cc1OC)C(=O)OC3.Cl [Example 96]: Criterion met
- COc1cc2cc3c(c(-c4ccc(-n5nc(N(C)C)nc5SC)nc4)c2cc1OC)C(=O)OC3.Cl [Example 223]: Criterion met
- COc1cc2cc3c(c(-c4cnc(/N=C\CN(C)C)cn4)c2cc1OC)C(=O)OC3 [Example 29]: Criterion not met

*Q* Hello, I need to know if COc1cc2cc3c(c(-c4ccc5cccnc5c4)c2cc1OC)C(=O)OC3 [Example 118] has measured SI (Selectivity Index, CC50/IC50) not below 3. Thanks!
*A* Criterion met

*Q* Hello, I need to know if COc1cc2cc3c(c(-c4cnc(N5CCCC(C(=O)O)C5)nc4)c2cc1OC)C(=O)OC3 (centres unmarked) [Example 60] has measured SI (Selectivity Index, CC50/IC50) not below 3. Thanks!
*A* Criterion not met

*Q* Hello, I need to know if COc1cc2cc3c(c(-c4cc5c(cc4OP(=O)(NC(C)C)c4ccccc4)OCO5)c2cc1OC)C(=O)OC3 (centres unmarked) [Example 281] has measured SI (Selectivity Index, CC50/IC50) not below 3. Thanks!
*A* Criterion met
